Tested on: OVCAR-8 ovarian
assay_method_text: NCI-60 one-dose screen, 48 h
condition_set: 10 µM unless noted
This is part of a sample that, as a whole, favours compounds with a hit. Of some 83,000 tested, about 20% had one in any assay. Activity calls are given as the source filed them. The calls were made as follows: active = growth percent below 10; inactive = the rest.
Use one of these outcomes when replying: true (1) (active), false (0) (inactive)

Example entries and their recorded answers appear below.
Outcome? COCN1CCC2N(COC)CCC3N(COC)CCC1N23 (stereo not given) false (0)

Outcome? CC1(C)OC2C(CO[Si](C)(C)C(C)(C)C)OC(n3c(I)c(C#C[Si](C)(C)C)c(=O)[nH]c3=O)C2O1 (stereo not given) false (0)

Outcome? "Cc1cc(NCc2cc(Nc3ccnc4cc(Cl)ccc34)ccc2F)nc(Cl)n1" false (0)

Next:
Outcome? "COc1cc(/C=N/n2c(CN3CCOCC3)nc3ccccc3c2=O)cc(OC)c1OC" false (0)

Outcome? "O=S(=O)(Nc1cccc(Cl)c1)c1ccc(-c2cnc(C3CC3)o2)cc1" false (0)

Outcome? "COc1cc(-c2nn(-c3ccccc3)cc2-c2ccnc(NCCNS(=O)(=O)c3ccc(Cl)cc3)n2)ccc1Cl" false (0)

Outcome? "CC(C)(C)CC(C)(C)Nc1c(-c2ccncc2)nc2cnccn12" false (0)

Outcome? "Cc1ccc(S(=O)(=O)NCC[C@@H]2C[C@H]2c2cc3ccccc3s2)cc1" false (0)

Outcome? "Cc1ccc2c(c1)Sc1c(ccc3ccccc13)N2" false (0)

Outcome? "CC/C=C\C[C@H](O)C/C=C1/C(=O)C=C[C@@H]1C/C=C\CCCC(=O)OC" true (1)

----------
System: SF-295 CNS
assay_method_text: NCI-60 one-dose screen, 48 h (100 = growth as untreated, 0 = no growth, -100 = all killed)
condition_set: 10 µM unless noted
About 83,000 compounds went through this panel and 20% of them were active in at least one assay; those are over-represented in the sample as a whole.
Recorded growth values for a group of compounds are listed next.
Your answer should be a plain number; it is taken to be in %.

Recall and state the measured growth for COc1ccc(CNC(=O)C(O)C(Cc2ccccc2)NC(=O)c2[nH]c3ccccc3c(=O)c2C)cc1OC (centres undefined) . 99.7

Recall and state the measured growth for "COc1cccc(C(=O)NCCCNc2cc(-c3cn(-c4ccccc4)nc3-c3cccc(OC)c3)ccn2)c1" . 44

Recall and state the measured growth for "O=C1NC(=Nc2ccc(Cl)cc2)S/C1=C\c1cn(-c2ccccc2)nc1-c1ccccc1" . 94.5

Next:
Recall and state the measured growth for "COc1cc(/C=N/NC(=O)Cn2c(C(C)C)nc3ccccc32)ccc1O" . 104

Recall and state the measured growth for "CCOC(=O)c1csc(NC(=O)COc2cccc(/C=C3\Oc4cc(OC)ccc4C3=O)c2)n1" . 121

Recall and state the measured growth for "N=C(N)c1ccc(-c2ccc(-c3cncc4ccccc34)s2)s1" . -81.3

----------
System: HOP-62 NSCLC
assay_method_text: NCI-60 one-dose screen, 48 h
condition_set: 10 µM unless noted
This is part of a sample that, as a whole, favours compounds with a hit. Of some 83,000 tested, about 20% had one in any assay. Active and inactive are the calls of the source. Rule for the calls: active = growth percent below 10; inactive = the rest.
Use one of these outcomes when replying: active, inactive

Example entries and their recorded answers appear below.
Outcome? "COc1cc2ncn3c(=O)c4c5c(sc4nc3c2cc1OC)CCCC5" inactive

Outcome? "Cn1cc(-c2csc(-c3cccc(F)c3)n2)c2cccnc21" active

Outcome? "O=C(Nc1ccc(Nc2ccncc2)cc1)c1ccc(C(=O)Nc2ccc(Nc3ccncc3)cc2)cc1" inactive

Outcome? "COC(=O)c1c2c(c(C)[n+]([O-])c1C)C(=O)C(NCc1ccc(F)cc1)=CC2=O" inactive

Next:
Outcome? "CNc1ccc(NC)c2c1C(=O)c1ccccc1C2=O" inactive

Outcome? "COC(=O)[C@]12CC[C@@H](C)[C@H](C)[C@@H]1C1=CC[C@@H]3[C@@]4(C)C(C=O)=C[C@@](C)(COC(C)=O)[C@@H]4C(=O)C[C@@]3(C)[C@]1(C)CC2" inactive

Outcome? CC(=O)N1N=C(c2ccc(Nc3nc(Nc4ccc(F)cc4)nc(Nc4ccc(F)cc4)n3)cc2)CC1c1cccc([N+](=O)[O-])c1 (stereo not given) inactive

Outcome? CC1SC(c2ccc(OCc3ccccc3)cc2)N(NC(=O)C(O)(c2ccccc2)c2ccccc2)C1=O (stereo not given) inactive

Outcome? "NC(=O)c1ccc[n+]([C@@H]2O[C@H](COP(=O)([O-])OP(=O)(O)OC[C@H]3O[C@@H](n4cnc5c(N)ncnc54)[C@H](O)[C@@H]3O)[C@@H](O)[C@H]2O)c1" inactive

Outcome? "NC(=O)c1ccc[n+](Cc2ccc(Cl)cc2Cl)c1" inactive

Outcome? "Cc1cc(Cl)nc(NCc2cc(Nc3ccnc4cc(Cl)ccc34)ccc2F)n1" inactive

Outcome? "COc1ccc(-c2cc(-c3ccc(Nc4nc(Nc5ccc(Cl)cc5)nc(Nc5ccc(Cl)cc5)n4)cc3)nc(N)c2C#N)cc1" inactive

Outcome? "N/C(=N/N=C/c1ccccc1)N/N=C\c1ccccc1" inactive

Outcome? "Nc1cc2c3c(cccc3c1)C(=O)N(CCN1CCCC1)C2=O" inactive

Outcome? "COc1ccc2c(c1)C(=O)/C(=C/c1cccc(OCC(=O)Nc3nc(C)c(C)s3)c1)O2" inactive

Outcome? "CC(C)(C)c1ccc(/C=C/C(=O)Nc2ccc(O)cc2)cc1" inactive

Outcome? Cc1nc2ccccc2n1CC1NC(=O)NC1=O (stereo not given) inactive

Outcome? "CCOC(=O)C/C(C)=N\NC(=O)c1ccncc1" inactive

Outcome? CC(=O)C(C)Cc1cc2c(cc1C)C(C)(C)CCC2(C)C (stereo not given) inactive

Outcome? "COc1cc(N2C(=O)c3nccnc3C2=O)cc(OC)c1OC" inactive

----------
Recorded growth values for a group of compounds are listed next.
Test system: EKVX NSCLC
assay_method_text: NCI-60 one-dose screen, 48 h (100 = growth as untreated, 0 = no growth, -100 = all killed)
condition_set: 10 µM unless noted
Compounds without any hit were thinned out: in the full panel of roughly 83,000, 20% have a hit.
Your answer should be a plain number; it is taken to be in %.

Write down measured growth (EKVX NSCLC) for this compound. "Cc1cc(NCc2cc(Nc3ccnc4cc(Cl)ccc34)ccc2F)nc(N2CCN(c3ccccc3)CC2)n1" 64.8

Next:
Write down measured growth (EKVX NSCLC) for this compound. "NC(N)=NN=C(c1ccccc1)c1ccccc1" 65.3

Write down measured growth (EKVX NSCLC) for this compound. "CCCCn1c(=O)c2c(nc(NCCc3ccc(O)c(O)c3)n2CCC)n(CCCC)c1=O" 79.5

Write down measured growth (EKVX NSCLC) for this compound. "O=C1Nc2ccccc2/C1=C/c1cn(C(=O)c2c(Cl)cccc2Cl)c2ccccc12" 81.5

Write down measured growth (EKVX NSCLC) for this compound. "Cc1ccc(/C=C2\C(=O)N(C)c3ccc(S(=O)(=O)Nc4ccc(C(C)(C)C)cc4)cc32)s1" 54.3

Write down measured growth (EKVX NSCLC) for this compound. "CCOc1ccccc1-c1cc(-c2cccs2)c(C#N)c(=O)[nH]1" 97.5

Write down measured growth (EKVX NSCLC) for this compound. "C[C@]12CC[C@@H]3c4cc(OC(F)F)c(O)cc4CC[C@H]3[C@@H]1CC[C@@H]2OS(N)(=O)=O" 24.6

Write down measured growth (EKVX NSCLC) for this compound. "COc1ccc(-c2csc(C3=C(O)CN(CCCN4CCCC4=O)C3=N)n2)cc1OC" 97.5

Write down measured growth (EKVX NSCLC) for this compound. "COc1cc(Cn2ncc3ccc(NC(=O)c4cc5ccccc5oc4=N)cc32)cc(OC)c1OC" 71.5

----------
Recorded growth values for a group of molecules are listed next.
Test system: UACC-62 melanoma
assay_method_text: NCI-60 one-dose screen, 48 h (100 = growth as untreated, 0 = no growth, -100 = all killed)
condition_set: 10 µM unless noted
Method: Growth inhibition of the UACC-62 human tumor cell line is measured as a screen for anti-cancer activity. Cells are grown in 96 well plates and exposed to the test compound for 48 hours. Compounds are tested at a single concentration, which is 10^-5 M for most compounds. The reported endpoint is percent growth (GI% or GIPRCNT), where numbers from 0 - 100% represent growth inhibition, and numbers from -100% - 0 represent cell death. For example, a value of 40 represents 60% growth inhibition. […]
The panel holds about 83,000 compounds, 20% with a hit somewhere; the sample as a whole holds those more often.
Your answer should be a plain number; it is taken to be in %.

Worked examples, 5 molecules total:
Recall and state the measured growth for "COC(=O)c1c2c(c(C)[n+]([O-])c1C)C(=O)C(NCc1ccc(F)cc1)=CC2=O" . -35.5

Recall and state the measured growth for "Cc1ccc(Nc2ccc(Nc3ccc(C)cc3)c3c2C(=O)c2cccc(O)c2C3=O)cc1" . 87.1

Recall and state the measured growth for "CNC(=O)c1cc(Oc2ccc3nc(Nc4ccc(Cl)c(C(F)(F)F)c4)ccc3c2)ccn1" . 47.3

Recall and state the measured growth for CNC(=O)NCC1OC(n2cnc3c(NC(=O)Nc4ccccc4)ncnc32)C(O[Si](C)(C)C(C)(C)C)C1CC(=O)N(C)OC (centres undefined) . 34.4

Recall and state the measured growth for "COC(=O)[C@]12CC[C@@H](C)[C@H](C)[C@@H]1C1=CC[C@@H]3[C@@]4(C)C(C=O)=C[C@@](C)(COC(C)=O)[C@@H]4C(=O)C[C@@]3(C)[C@]1(C)CC2" . 42.1

Next:
Recall and state the measured growth for CC(C)C(NC(=O)C1(NC(=O)OCc2ccccc2)CCCC1)C(=O)O (centres undefined) . 106

Recall and state the measured growth for "COc1ccc(NC(=O)c2nc(-c3cc(OC)c(OC)c(OC)c3)n(-c3cccc4ccccc34)n2)cc1OC" . 31

Recall and state the measured growth for "O=C(/C=C/c1c(Cl)nc2sccn12)c1nccs1" . 89.7

Recall and state the measured growth for "CCCCCCCCCCCCCCCCCC1=NCCN1CCOC1=C(Cl)C(=O)c2ccccc2C1=O" . 40.6
